SYSTEM NAME: T1, NPR-B (natriuretic peptide receptor B), murine, expressed endogenously on NIH3T3 cells (murine, UniProt Q6VVW5 17-1047)
T1 sequence (looked up): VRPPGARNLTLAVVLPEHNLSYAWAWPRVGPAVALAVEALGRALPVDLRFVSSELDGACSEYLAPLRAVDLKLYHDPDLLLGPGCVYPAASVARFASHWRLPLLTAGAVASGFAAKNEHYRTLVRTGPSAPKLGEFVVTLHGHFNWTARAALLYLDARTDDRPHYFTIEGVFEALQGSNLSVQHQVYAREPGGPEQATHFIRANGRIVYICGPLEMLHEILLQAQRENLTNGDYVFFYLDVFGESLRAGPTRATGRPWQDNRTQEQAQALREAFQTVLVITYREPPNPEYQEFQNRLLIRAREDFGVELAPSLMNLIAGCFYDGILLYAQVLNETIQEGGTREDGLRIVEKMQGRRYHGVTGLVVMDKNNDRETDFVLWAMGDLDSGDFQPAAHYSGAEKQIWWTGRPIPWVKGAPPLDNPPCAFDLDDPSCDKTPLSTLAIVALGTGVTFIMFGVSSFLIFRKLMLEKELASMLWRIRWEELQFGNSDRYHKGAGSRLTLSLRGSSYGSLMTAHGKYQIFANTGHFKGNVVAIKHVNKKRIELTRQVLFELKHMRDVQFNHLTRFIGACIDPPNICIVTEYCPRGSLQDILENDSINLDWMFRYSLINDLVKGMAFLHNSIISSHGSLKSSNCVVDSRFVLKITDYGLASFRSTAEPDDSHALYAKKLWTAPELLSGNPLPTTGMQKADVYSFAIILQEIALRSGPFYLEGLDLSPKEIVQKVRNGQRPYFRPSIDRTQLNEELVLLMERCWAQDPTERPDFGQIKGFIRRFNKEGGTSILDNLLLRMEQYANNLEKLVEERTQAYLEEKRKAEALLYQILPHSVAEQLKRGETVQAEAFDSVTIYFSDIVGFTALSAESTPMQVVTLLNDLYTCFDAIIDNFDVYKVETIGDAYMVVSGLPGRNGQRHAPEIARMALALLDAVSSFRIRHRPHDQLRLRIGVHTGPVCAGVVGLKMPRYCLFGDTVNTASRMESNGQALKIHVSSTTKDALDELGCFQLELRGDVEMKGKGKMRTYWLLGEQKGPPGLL
METHOD: cell-based or functional assay
Where no end group is shown, it is not given here. PEO12 = PEO12, 0.6 kDa, monodispersed; PEO24 = PEO24, 1.2 kDa, monodispersed
MEASURED ENDPOINT: cGMP response rel. to 1 uM CNP22; 1 uM peptide, NIH3T3 cells

> print(dat)
                                      binder               endpoint.value
 1  {PEO4‑(PEO12)3 (branched)}-GLSKGCFGLKLDRIGSMSGLGC (ends and bridges not checked) [PEO4-(PEO12)3 (branched)-CNP22]  52 rel. to 1 uM CNP22 (100)
 2  {PEG 2 kDa}-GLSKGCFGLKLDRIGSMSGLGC (ends and bridges not checked) [PEG2K-CNP22]  32 rel. to 1 uM CNP22 (100)
 3  PEG2K-GANRRGLSRGCFGLKLDRIGSMSGLGC (ends and bridges not checked) [PEG2K-GANRR-CNP22, K4R]  45 rel. to 1 uM CNP22 (100)
 4  PEO12-GLSRGCFGLKLDRIGSMSGLGC (ends and bridges not checked) [PEO12-CNP22, K4R]  44 rel. to 1 uM CNP22 (100)
 5  PEO24-RGLSRGCFGLKLDRIGSMSGLGC (ends and bridges not checked) [PEO24-R-CNP22, K4R]  75 rel. to 1 uM CNP22 (100)
 6  PEO12-GANQQGLSRGCFGLKLDRIGSMSGLGC (ends and bridges not checked) [PEO12-GANQQ-CNP22, K4R]  78 rel. to 1 uM CNP22 (100)
 7  PEO12-RGLSRGCFGLKLDRIGSMSGLGC (ends and bridges not checked) [PEO12-R-CNP22, K4R]  93 rel. to 1 uM CNP22 (100)
 8  PEO24-ERGLSRGCFGLKLDRIGSMSGLGC (ends and bridges not checked) [PEO24-ER-CNP22, K4R]  60 rel. to 1 uM CNP22 (100)
 9  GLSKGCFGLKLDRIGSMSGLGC (not fully specified (N-terminus); ends and bridges not checked) [(PEO12)-Biotin-CNP22]  81 rel. to 1 uM CNP22 (100)
10  {PEG 1 kDa}-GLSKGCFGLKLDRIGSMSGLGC (ends and bridges not checked; also: PEG polydispersed) [PEG1K-CNP22]  68 rel. to 1 uM CNP22 (100)
11  PEO12-GANRRGLSRGCFGLKLDRIGSMSGLGC (ends and bridges not checked) [PEO12-GANRR-CNP22(K4R)]  99 rel. to 1 uM CNP22 (100)
12  PEO24-GANQQGLSRGCFGLKLDRIGSMSGLGC (ends and bridges not checked) [PEO24-GANQQ-CNP22, K4R]  73 rel. to 1 uM CNP22 (100)
13  PEO12-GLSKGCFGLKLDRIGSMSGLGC (ends and bridges not checked) [PEO12-CNP22]  57 rel. to 1 uM CNP22 (100)
14  PEO24-GANSSGLSRGCFGLKLDRIGSMSGLGC (ends and bridges not checked) [PEO24-GANSS-CNP22, K4R]  46 rel. to 1 uM CNP22 (100)
15  PEO24-GANRRGLSRGCFGLKLDRIGSMSGLGC (ends and bridges not checked) [PEO24-GANRR-CNP22(K4R)]  82 rel. to 1 uM CNP22 (100)
16  PEO12-ERGLSRGCFGLKLDRIGSMSGLGC (ends and bridges not checked) [PEO12-ER-CNP22, K4R]  92 rel. to 1 uM CNP22 (100)
17  PEO24-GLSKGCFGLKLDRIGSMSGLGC (ends and bridges not checked) [PEO24-CNP22]  46 rel. to 1 uM CNP22 (100)
18  PEO12-GANSSGLSRGCFGLKLDRIGSMSGLGC (ends and bridges not checked) [PEO12-GANSS-CNP22, K4R]  52 rel. to 1 uM CNP22 (100)
19  PEG2K-CFGLKLDRIGSMSGLGC (ends and bridges not checked) [PEG2K-CNP17]  50 rel. to 1 uM CNP22 (100)
20  PEO24-GLSRGCFGLKLDRIGSMSGLGC (ends and bridges not checked) [PEO24-CNP22, K4R]  56 rel. to 1 uM CNP22 (100)
21  PEG1K-GANRRGLSRGCFGLKLDRIGSMSGLGC (ends and bridges not checked) [PEG1K-GANRR-CNP22(K4R)]  56 rel. to 1 uM CNP22 (100)
22  {PEG 20 kDa}-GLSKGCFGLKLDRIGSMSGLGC (ends and bridges not checked) [PEG20K-CNP22]  15 rel. to 1 uM CNP22 (100)
23  {PEG 5 kDa}-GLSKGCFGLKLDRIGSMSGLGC (ends and bridges not checked; also: PEG polydispersed) [PEG5K-CNP22]  20 rel. to 1 uM CNP22 (100)
